Data credit: patent US7153869B2

system: EBP-Ig (N-terminal 225 amino acids of the human EPO receptor joined to an Ig heavy chain) (Homo sapiens, UniProt P19235)
Construct: Ig heavy chain (fusion partner); made in house; host or cells: NSO cells (secreted into conditioned media)
Sequence (P19235 25-250 limits assumed): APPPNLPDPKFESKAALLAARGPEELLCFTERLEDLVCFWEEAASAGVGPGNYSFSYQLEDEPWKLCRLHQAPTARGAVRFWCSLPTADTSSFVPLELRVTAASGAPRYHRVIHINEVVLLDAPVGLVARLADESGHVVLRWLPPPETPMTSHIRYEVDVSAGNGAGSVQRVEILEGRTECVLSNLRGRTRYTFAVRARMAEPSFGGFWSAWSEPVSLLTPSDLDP
test.name: Inhibition of [125I]EPO binding to immobilized EBP-Ig (EPO binding protein-Ig), scintillation Flash plate competition assay
condition: Table 11; 50 μM
measured.parameter: EPO/EBP-Ig % inh @ 50 μM (%)
Answers are plain numbers, in %.

CC(C)(C)OC(=O)CC(C(=O)NCCCOCCOCCOCCCNC(=O)C(CC(=O)OC(C)(C)C)N(Cc1ccc(OCc2ccccc2)cc1)Cc1ccc(OCc2ccccc2)cc1)N(Cc1ccc(OCc2ccccc2)cc1)Cc1ccc(OCc2ccccc2)cc1 (stereo not drawn) [compound 242]    1
CC(C)(C)OC(=O)CC(C(=O)NCCCOCCCCOCCCNC(=O)C(CC(=O)OC(C)(C)C)N(Cc1ccc(OCc2ccccc2)cc1)Cc1ccc(OCc2ccccc2)cc1)N(Cc1ccc(OCc2ccccc2)cc1)Cc1ccc(OCc2ccccc2)cc1 (stereo not drawn) [compound 241]    2

Input line: Give its EPO/EBP-Ig % inh @ 50 μM value. Item: Cc1ccc(C(=O)Nc2cccc(CN(Cc3cccc(Oc4ccccc4)c3)C(CCC(=O)O)C(=O)NCCOCCOCCNC(=O)C(CCC(=O)O)N(Cc3cccc(NC(=O)c4ccc(C)cc4)c3)Cc3cccc(Oc4ccccc4)c3)c2)cc1 (stereo not drawn) [compound 249]
Output line: 72

* * *

system: EBP-Ig (N-terminal 225 amino acids of the human EPO receptor joined to an Ig heavy chain) (Homo sapiens, UniProt P19235)
Construct: Ig heavy chain (fusion partner); made in house; host or cells: NSO cells (secreted into conditioned media)
test.name: Inhibition of [125I]EPO binding to immobilized EBP-Ig (EPO binding protein-Ig), scintillation Flash plate competition assay
condition: 50 μM test compound; 0.5 nM [125I]EPO; average % inhibition
Criterion: % inh @ 50 μM (Inhibition of EPO binding to EBP-Ig) meeting or surpassing 50%. Met: Criterion met. Not met: Criterion not met.

// known answers, use as guide
COC(=O)C(CCCCN)N(Cc1ccc(OCc2ccccc2)cc1)Cc1cccc(NC(=O)c2ccncc2)c1 (stereo not drawn)    Criterion not met
O=C(O)CCC(C(=O)NCCOCCOCCNC(=O)C(CCC(=O)O)N(Cc1cccc(NC(=O)c2ccco2)c1)Cc1cccc(Oc2ccccc2)c1)N(Cc1cccc(NC(=O)c2ccco2)c1)Cc1cccc(Oc2ccccc2)c1 (stereo not drawn)    Criterion met

Input line: Is the recorded value of % inh @ 50 μM (Inhibition of EPO binding to EBP-Ig) equal to or greater than 50% for this molecule? NCCCCC(C(=O)NCCc1ccccc1)N(C/C=C/c1cccc(Oc2ccccc2)c1)C/C=C/c1cccc(Oc2ccccc2)c1 (stereo not drawn)
Output line: Criterion not met

Input line: Is the recorded value of % inh @ 50 μM (Inhibition of EPO binding to EBP-Ig) equal to or greater than 50% for this molecule? CC(=O)O.COC(=O)CC(NCC=Cc1cccc(C(=O)OC)c1)C(=O)OC (stereo not drawn)
Output line: Criterion not met

Input line: Is the recorded value of % inh @ 50 μM (Inhibition of EPO binding to EBP-Ig) equal to or greater than 50% for this molecule? COC(=O)C(CCCCN)N(Cc1cccc(OCc2ccccc2)c1)Cc1cccc(OCc2ccccc2)c1 (stereo not drawn)
Output line: Criterion met

* * *

system: EBP-Ig (N-terminal 225 amino acids of the human EPO receptor joined to an Ig heavy chain) (Homo sapiens, UniProt P19235)
Construct: Ig heavy chain (fusion partner); made in house; host or cells: NSO cells (secreted into conditioned media)
test.name: Inhibition of [125I]EPO binding to immobilized EBP-Ig (EPO binding protein-Ig), scintillation Flash plate competition assay
condition: 0.5 nM [125I]EPO; 0–500 μM test compound
Exercise: state measured IC30 μM (Inhibition of EPO binding to EBP-Ig) for each of the compounds provided.
Give bare numbers, in µM.

O=C(O)CCC(C(=O)NCCOCCOCCNC(=O)C(CCC(=O)O)N(CC=Cc1ccccc1)CC=Cc1ccccc1)N(CC=Cc1ccccc1)CC=Cc1ccccc1 (centres unmarked)    10

For every record below, what is its IC30 μM (Inhibition of EPO binding to EBP-Ig)?
1. CC(C)(CC(=O)O)CC(=O)NCCCCC(C(=O)NCCOCCOCCNC(=O)C(CCCCNC(=O)CC(C)(C)CC(=O)O)N(Cc1ccc(OCc2ccccc2)cc1)Cc1ccc(OCc2ccccc2)cc1)N(Cc1ccc(OCc2ccccc2)cc1)Cc1ccc(OCc2ccccc2)cc1 (centres unmarked)
2. O=C(O)CCC(=O)NCCCCC(C(=O)NCCCOCCCCOCCCNC(=O)C(CCCCNC(=O)CCC(=O)O)N(Cc1ccc(OCc2ccccc2)cc1)Cc1ccc(OCc2ccccc2)cc1)N(Cc1ccc(OCc2ccccc2)cc1)Cc1ccc(OCc2ccccc2)cc1 (centres unmarked)
3. CC(=O)O.COC(=O)c1cccc(C=CCNC(CSCc2ccccc2)C(=O)OC)c1 (centres unmarked)

Output line:
1: 1.5; 2: 1; 3: 90

For every record below, what is its IC30 μM (Inhibition of EPO binding to EBP-Ig)?
1. O=C(O)CCC(C(=O)NCCOCCOCCNC(=O)C(CCC(=O)O)N(Cc1ccc(OCc2ccccc2)cc1)Cc1ccc(OCc2ccccc2)cc1)N(Cc1ccc(OCc2ccccc2)cc1)Cc1ccc(OCc2ccccc2)cc1 (centres unmarked)
2. COc1ccc(CCNC(=O)C(CCCCN)N(C/C=C/c2ccccc2)C/C=C/c2ccccc2)cc1OC (centres unmarked)
3. COC(=O)C(CCCCN)N(C/C=C/c1cccc(Oc2ccccc2)c1)Cc1cccc(Oc2ccccc2)c1 (centres unmarked)

Output line:
10
10
5

For every record below, what is its IC30 μM (Inhibition of EPO binding to EBP-Ig)?
1. COC(=O)C(CCCCN)N(Cc1ccc(OCc2ccccc2)cc1)Cc1cccc([N+](=O)[O-])c1 (centres unmarked)
2. COC(=O)C(CCCCN)N(C/C=C/c1cccc([N+](=O)[O-])c1)C/C=C/c1cccc([N+](=O)[O-])c1 (centres unmarked)
3. CC(C)(CC(=O)O)CC(=O)NCCCCC(C(=O)NCCCOCCCCOCCCNC(=O)C(CCCCNC(=O)CC(C)(C)CC(=O)O)N(Cc1ccc(OCc2ccccc2)cc1)Cc1ccc(OCc2ccccc2)cc1)N(Cc1ccc(OCc2ccccc2)cc1)Cc1ccc(OCc2ccccc2)cc1 (centres unmarked)
4. O=C(O)CCCC(=O)NCCCCC(C(=O)NCCCCCCCCCCCCNC(=O)C(CCCCNC(=O)CCCC(=O)O)N(Cc1ccc(OCc2ccccc2)cc1)Cc1ccc(OCc2ccccc2)cc1)N(Cc1ccc(OCc2ccccc2)cc1)Cc1ccc(OCc2ccccc2)cc1 (centres unmarked)

Output line:
1. 10
2. 10
3. 2
4. 8

* * *

system: EBP-Ig (N-terminal 225 amino acids of the human EPO receptor joined to an Ig heavy chain) (Homo sapiens)
Construct: Ig heavy chain (fusion partner); made in house; host or cells: NSO cells (secreted into conditioned media)
Sequence (P19235 25-250 limits assumed): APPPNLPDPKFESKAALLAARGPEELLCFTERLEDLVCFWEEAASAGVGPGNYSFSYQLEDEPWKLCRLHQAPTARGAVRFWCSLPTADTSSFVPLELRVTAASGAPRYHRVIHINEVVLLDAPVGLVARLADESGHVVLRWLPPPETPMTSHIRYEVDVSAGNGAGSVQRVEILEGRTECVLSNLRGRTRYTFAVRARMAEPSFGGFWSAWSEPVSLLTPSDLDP
test.name: Inhibition of [125I]EPO binding to immobilized EBP-Ig (EPO binding protein-Ig), scintillation Flash plate competition assay
condition: 50 μM compound; Table 20A
Please note: EPO/EBP-Ig % inh @ 50 μM exactly at 20% is false (0). Only values below 20% get true (1).

COC(=O)[C@H](CO)NC/C=C/c1ccc(-c2ccccc2)cc1.O=C(O)C(F)(F)F    true (1)
CC(C)(C)OC[C@H](NC/C=C/c1cccc(Oc2cccc(C(F)(F)F)c2)c1)C(=O)O    true (1)

Input line: In the record for `CC(C)(C)c1ccc(Oc2cccc(/C=C/CN[C@@H](CO)C(=O)O)c2)cc1.O=C(O)C(F)(F)F` , is EPO/EBP-Ig % inh @ 50 μM less than 20%?
Output line: false (0)

Input line: In the record for `O=C(O)C(F)(F)F.O=C(O)[C@H](CO)NC/C=C/c1ccc(-c2ccccc2)cc1` , is EPO/EBP-Ig % inh @ 50 μM less than 20%?
Output line: false (0)

Input line: In the record for `COC(=O)[C@H](CO)NC/C=C/c1cccc(Oc2ccc(C(C)(C)C)cc2)c1.O=C(O)C(F)(F)F` , is EPO/EBP-Ig % inh @ 50 μM less than 20%?
Output line: false (0)

Input line: In the record for O=C(O)C(CO)NCC=Cc1cccc(Oc2ccccc2)c1 (stereo not drawn) , is EPO/EBP-Ig % inh @ 50 μM less than 20%?
Output line: false (0)

Input line: In the record for `COC(=O)[C@H](COC(C)(C)C)NC/C=C/c1cccc(Oc2ccc(C(C)(C)C)cc2)c1` , is EPO/EBP-Ig % inh @ 50 μM less than 20%?
Output line: false (0)

Input line: In the record for `COC(=O)[C@H](CO)NC/C=C/c1cccc(Oc2ccc(Cl)c(Cl)c2)c1.O=C(O)C(F)(F)F` , is EPO/EBP-Ig % inh @ 50 μM less than 20%?
Output line: false (0)

Input line: In the record for `COC(=O)[C@H](COC(C)(C)C)NC/C=C/c1cccc(Oc2ccc(Cl)c(Cl)c2)c1` , is EPO/EBP-Ig % inh @ 50 μM less than 20%?
Output line: false (0)

Input line: In the record for COC(=O)C(COC(C)(C)C)NCC=Cc1cccc(Oc2ccccc2)c1 (stereo not drawn) , is EPO/EBP-Ig % inh @ 50 μM less than 20%?
Output line: true (1)

Input line: In the record for `O=C(O)C(F)(F)F.O=C(O)[C@H](CO)NC/C=C/c1cccc(Oc2ccc(Cl)c(Cl)c2)c1` , is EPO/EBP-Ig % inh @ 50 μM less than 20%?
Output line: false (0)

Input line: In the record for `COC(=O)[C@H](COC(C)(C)C)NC/C=C/c1ccc(-c2ccccc2)cc1` , is EPO/EBP-Ig % inh @ 50 μM less than 20%?
Output line: false (0)
